The measurements presented in this section are drawn from PubChem BioAssay AID602248.

Items are presented alongside their recorded activation.
- assay.explanation: counter-screen for M1 agonists: effect in parental CHO-K1 cells (AID 602248);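 further: untransfected CHO-K1 host cells lacking M1 receptor as counterscreen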
- experimental.setup: Fluo-8 calcium fluorescence, at 3 µM, hits give high values, scaled to maximal ATP response, vehicle zero
The whole screen tested about 360,000 compounds, of which about 1,700 (0.47%) were called active. The sample holds actives, similar compounds and a random draw of the others, so the mix is not that of the screen.
experimental.endpoint: activation (%)

molecule=Cc1ccc(Cc2cncc(O)c2)cc1S(=O)(=O)O result_number=0.27
molecule=CCOc1ccc(C(=O)NC2CCN(S(=O)(=O)CC)CC2)cc1 result_number=0.96
molecule=COc1cc(NC(=O)NCC2CCN(Cc3ccc(C)cc3)CC2)cc(OC)c1OC result_number=1.36
molecule=O=C(CSc1ccc(-c2ccco2)nn1)Nc1cccc(F)c1 result_number=16.7
molecule=COc1ccc(NC(=O)CSc2ccc(-c3ccco3)nn2)c(OC)c1 result_number=0.21
molecule=O=C(CC(=O)N/N=C\c1cccc(Cl)c1Cl)NCc1ccccc1 result_number=6.61
molecule=Cc1cccc(CN2CCC(CNC(=O)Nc3ccc(F)c(Cl)c3)CC2)c1 result_number=29.2
molecule="CC(C)C(=O)NCC(c1cccs1)S(=O)(=O)c1ccc(F)cc1 (stereo not drawn)" result_number=2.59
molecule=C1CC1Cc1noc(CN2CCN(CC3CC3)CC2)n1 result_number=1.05
molecule="CCOC(=O)C(C)Sc1nnc(CSc2nc3nc(C)cc(C)n3n2)o1 (stereo not drawn)" result_number=1.72
molecule=C[C@@H](O)c1nc2ccccc2n1N result_number=6.47
molecule="CCCCC(CC)CNC(=O)C(=O)C1C(=O)Nc2ccccc21 (stereo not drawn)" result_number=-0.65
molecule=O=C(c1ccc(=O)oc1)N1CCC(C(O)(c2ccccc2)c2ccccc2)CC1 result_number=0.08
molecule=O=C(NCc1ccco1)c1cccc(-c2ccc3nncn3c2)c1 result_number=0.29
molecule=CCCc1c(C(=O)N/N=C(\C)CCc2ccc(OC)cc2)nnn1-c1nonc1N result_number=0.32
molecule="O=S1(=O)CC(N2CCN(CCO)CC2)CN1C1CCCC1 (stereo not drawn)" result_number=0.24
molecule=O=C(CSc1ccc(-c2ccc(F)cc2)nn1)Nc1ccc2c(c1)OCCO2 result_number=6.26
molecule=CCOc1ccc(NS(=O)(=O)c2ccc(C(=O)NC3CCN(Cc4ccccc4)CC3)cc2)cc1 result_number=15.3
molecule="CC1CCC(NC(=O)CN(C)S(=O)(=O)c2ccc3c(c2)c(=O)n(C)c(=O)n3C)CC1 (stereo not drawn)" result_number=15.6
molecule=COc1ccc2c(c1)CCC/C2=N\OC(=O)c1ccccc1F result_number=1.78
molecule=N#CC1(NC(=O)COC(=O)CCN=C2NS(=O)(=O)c3ccccc32)CCCCC1 result_number=1.21
molecule=O=C(CCCN=C1NS(=O)(=O)c2ccccc21)OCC(=O)c1ccc(F)c(F)c1 result_number=16.5
molecule=CCN1/C(=C\c2ccc3ccccc3[n+]2CC)Sc2cc(C)ccc21 result_number=22.8
